Tested on: LpxC enzyme
Experiment: LpxC enzyme assay (RapidFire high-throughput mass spectrometry)
Type: biochemical
Conditions: concentration 25 (unit not given)
value.kind: LpxC enzyme assay rating (% inhibition at indicated concentrations)

In [3]: df
Out[3]:
                            compound_string                reading
0  O=C(Nc1ccc(-c2ccc(C(F)(F)F)cc2)cc1)[C@H](O)[C@@H](O)C(=O)N1CCCC1  B (10-30% inhibition)
1  CN(C)C(=O)[C@H](O)[C@@H](O)C(=O)N1CCC(c2ccc3ccccc3c2)CC1  B (10-30% inhibition)
2  CN(C)C(=O)[C@H](O)[C@@H](O)C(=O)N1CCC(c2ccc(C(F)(F)F)cc2)CC1  B (10-30% inhibition)

----------
I'd appreciate it if you could supply IC50 values for the items below.
Target: ADMP (ADAMTS-4-5) (Homo sapiens)
Construct: purchased Calbiochem PF113
Sequence (O75173 213-837): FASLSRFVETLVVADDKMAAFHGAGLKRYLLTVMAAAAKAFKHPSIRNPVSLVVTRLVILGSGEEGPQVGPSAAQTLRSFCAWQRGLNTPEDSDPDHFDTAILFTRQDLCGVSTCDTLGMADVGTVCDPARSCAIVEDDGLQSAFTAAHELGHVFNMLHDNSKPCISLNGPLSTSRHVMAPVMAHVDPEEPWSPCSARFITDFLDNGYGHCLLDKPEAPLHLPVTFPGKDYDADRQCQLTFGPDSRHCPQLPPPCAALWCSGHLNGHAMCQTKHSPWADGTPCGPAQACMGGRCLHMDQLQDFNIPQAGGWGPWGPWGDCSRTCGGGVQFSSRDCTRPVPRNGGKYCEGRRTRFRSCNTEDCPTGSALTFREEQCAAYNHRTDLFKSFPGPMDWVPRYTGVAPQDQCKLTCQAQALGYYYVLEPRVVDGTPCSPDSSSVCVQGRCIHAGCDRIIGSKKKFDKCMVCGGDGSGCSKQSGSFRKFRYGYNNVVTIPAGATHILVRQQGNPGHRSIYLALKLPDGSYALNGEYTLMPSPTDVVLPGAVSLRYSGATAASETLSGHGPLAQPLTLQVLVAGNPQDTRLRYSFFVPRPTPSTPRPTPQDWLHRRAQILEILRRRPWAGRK
Assay: ADMP activity assay (procedures of WO00/05256)
Format: biochemical
Details: read-out: IC50 rating (ADMP inhibitory activity)

For reference, reported IC50 for `C[C@H](NC(=O)[C@H](O)[C@@H](O)C(=O)N1CCN(c2ccc(F)cc2F)CC1)c1ccc(Br)cc1` stands at < 250 nM

For reference, reported IC50 for `O=C(NCc1cccc(I)c1)[C@H](O)[C@@H](O)C(=O)N1CCc2ccccc2C1` stands at > 5000 nM

For reference, reported IC50 for `COc1cccc(N2CCN(C(=O)[C@H](O)[C@@H](O)C(=O)N[C@@H](C)c3ccc(Br)cc3)CC2)c1` stands at < 250 nM

For reference, reported IC50 for CC(NC(=O)[C@H](O)[C@@H](O)C(=O)N1CCc2ccccc2C1)c1ccc(S(C)(=O)=O)cc1 (some centres unmarked) stands at > 5000 nM

For reference, reported IC50 for `C[C@H](NC(=O)[C@H](O)[C@@H](O)C(=O)N1Cc2ccccc2C[C@@H]1CO)c1ccc(Br)cc1` stands at < 250 nM

For reference, reported IC50 for `N[C@@H]1CCN(C(=O)[C@H](O)[C@@H](O)C(=O)NCc2ccc(C(F)(F)F)cc2)C1` stands at 1000 to 5000 nM

For reference, reported IC50 for `Cc1ccc(N2CCN(C(=O)[C@H](O)[C@@H](O)C(=O)N[C@@H](C)c3ccc(Br)cc3)CC2)cc1C` stands at 250 to 1000 nM

For reference, reported IC50 for `C[C@H](NC(=O)[C@H](O)[C@@H](O)C(=O)N(C)Cc1cc(Cl)cc(Cl)c1)c1ccc(Br)cc1` stands at 250 to 1000 nM

For reference, reported IC50 for `C[C@H](NC(=O)[C@H](O)[C@@H](O)C(=O)N1CCC2(CC1)C(=O)Nc1ccccc12)c1ccc(Br)cc1` stands at 1000 to 5000 nM

For reference, reported IC50 for `C[C@H](NC(=O)[C@H](O)[C@@H](O)C(=O)N1CCC2(CCCNC2)CC1)c1ccc(Br)cc1` stands at > 5000 nM

For reference, reported IC50 for `CN(C(=O)[C@H](O)[C@@H](O)C(=O)NCc1ccc(C(F)(F)F)cc1)C1CCCCC1` stands at 250 to 1000 nM

For reference, reported IC50 for `O=C(NCc1ccc(C(F)(F)F)cc1)[C@H](O)[C@@H](O)C(=O)N1CCc2ccccc2C1` stands at 250 to 1000 nM

For reference, reported IC50 for `C[C@H](NC(=O)[C@H](O)[C@@H](O)C(=O)N1CCC(S(=O)(=O)c2ccccc2)CC1)c1ccc(Br)cc1` stands at < 250 nM

For reference, reported IC50 for `C[C@H](NC(=O)[C@H](O)[C@@H](O)C(=O)N1Cc2ccccc2C1)c1ccc(Br)cc1` stands at 250 to 1000 nM

For reference, reported IC50 for O=C(NCCCCCn1c(C(F)(F)F)nc2ccccc21)C(O)C(O)C(=O)N1CCc2ccccc2C1 (centres unmarked) stands at > 5000 nM

For reference, reported IC50 for `C[C@H](NC(=O)[C@H](O)[C@@H](O)C(=O)N1CCc2ccccc2C1)c1ccc(Br)cc1` stands at < 250 nM

For reference, reported IC50 for `O=C(NCc1cccc(Br)c1)[C@@H](O)[C@H](O)C(=O)N1CCc2ccccc2C1` stands at > 5000 nM

For reference, reported IC50 for C[C@H](NC(=O)C(O)C(O)C(=O)N1CCc2ccccc2C1)c1ccc(I)cc1 (stereo in doubt) stands at 250 to 1000 nM

For reference, reported IC50 for `C[C@H](NC(=O)[C@H](O)[C@@H](O)C(=O)N1CCC(c2nc3ccccc3s2)CC1)c1ccc(Br)cc1` stands at < 250 nM

For reference, reported IC50 for C[C@H](NC(=O)C(O)C(O)C(=O)N1CCc2ccccc2C1)c1cccc(Br)c1 (some centres unmarked) stands at > 5000 nM

For reference, reported IC50 for `C[C@H](NC(=O)[C@H](O)[C@@H](O)C(=O)N[C@@H]1c2ccccc2C[C@@H]1O)c1ccc(Br)cc1` stands at > 5000 nM

For reference, reported IC50 for O=C(NCc1cccc(Br)c1)C(O)C(O)C(=O)N1CCc2ccccc2C1 (centres unmarked) stands at > 5000 nM

For reference, reported IC50 for `COc1ccc(CNC(=O)[C@H](O)[C@@H](O)C(=O)N2CCC[C@H]2CN2CCCC2)cc1` stands at 250 to 1000 nM

For reference, reported IC50 for C[C@H](NC(=O)C(O)C(O)C(=O)N1CCc2ccccc2C1)c1ccc(C(F)(F)F)cc1F (some centres unmarked) stands at > 5000 nM

For reference, reported IC50 for `CN(CCc1ccccn1)C(=O)[C@H](O)[C@@H](O)C(=O)NCc1ccc(Cl)cc1` stands at 250 to 1000 nM

For reference, reported IC50 for `C[C@H](NC(=O)[C@H](O)[C@@H](O)C(=O)N1CCc2c([nH]c3ccccc23)C1)c1ccc(Br)cc1` stands at 250 to 1000 nM

For reference, reported IC50 for `O=C(NCc1ccc(I)cc1)[C@H](O)[C@@H](O)C(=O)N1CCc2ccccc2C1` stands at < 250 nM

For reference, reported IC50 for `O=C(NCc1ccc(C(F)(F)F)cc1)[C@H](O)[C@@H](O)C(=O)N1CCN(c2ccc(F)cc2)CC1` stands at 250 to 1000 nM

For reference, reported IC50 for `COc1cc2c(cc1OC)CN(C(=O)[C@H](O)[C@@H](O)C(=O)N[C@@H](C)c1ccc(Br)cc1)CC2` stands at < 250 nM
